Listing of recorded pIC50 by entry.
# System: MCF-7 cells
# ASSAY NOTES: MTT cytotoxicity assay, MCF-7
# Format: cell-based
# RUN PARAMETERS: Homo sapiens, MCF7, 48 h, mean ± SEM of three
pIC50: −log10 of the molar value.
ENDPOINT: pIC50

[[record]]
smiles_string = "Cc1ccc(-n2c(SCC(=O)Nc3ccc(NC(=O)CN4CCOCC4)cc3)nnc2-c2c[nH]c3ccccc23)cc1"
target_entity = "MCF-7 cells"
recorded_number = 5.93

[[record]]
smiles_string = "COc1ccc(-n2c(SCC(=O)Nc3ccc(NC(=O)CN4CCOCC4)cc3)nnc2-c2c[nH]c3ccccc23)cc1"
target_entity = "MCF-7 cells"
recorded_number = 6.08

[[record]]
smiles_string = "O=C(CSc1nnc(-c2c[nH]c3ccccc23)n1-c1cccc(Cl)c1)Nc1ccc(NC(=O)CN2CCOCC2)cc1"
target_entity = "MCF-7 cells"
recorded_number = 4.96


----------
# System: MDA-MB-231 cells
# ASSAY NOTES: MTT cytotoxicity assay, MDA-MB-231
# Format: cell-based
# RUN PARAMETERS: Homo sapiens, 48 h, mean ± SEM of three
Listing of recorded IC50 by entry.
ENDPOINT: IC50

[[record]]
compound = "O=C(CSc1nnc(-c2c[nH]c3ccccc23)n1-c1ccc(Cl)cc1)Nc1ccc(NC(=O)CN2CCOCC2)cc1 [Compound U5]"
target_entity = "MDA-MB-231 cells"
result = "45.1 µM"

[[record]]
compound = "O=C(CSc1nnc(-c2c[nH]c3ccccc23)n1-c1ccc(F)cc1)Nc1ccc(NC(=O)CN2CCOCC2)cc1 [Compound U1]"
target_entity = "MDA-MB-231 cells"
result = "20.7 µM"

[[record]]
compound = "Cc1cc2c(C(C)C)c(O)c(O)c(C=O)c2c(O)c1-c1c(C)cc2c(C(C)C)c(O)c(O)c(C=O)c2c1O [Gossypol, reference compound]"
target_entity = "MDA-MB-231 cells"
result = "5.5 µM"

[[record]]
compound = "COc1ccc(-n2c(SCC(=O)Nc3ccc(NC(=O)CN4CCOCC4)cc3)nnc2-c2c[nH]c3ccccc23)cc1 [Compound U2]"
target_entity = "MDA-MB-231 cells"
result = "5.22 µM"

[[record]]
compound = "Cc1ccc(-n2c(SCC(=O)Nc3ccc(NC(=O)CN4CCOCC4)cc3)nnc2-c2c[nH]c3ccccc23)cc1 [Compound U3]"
target_entity = "MDA-MB-231 cells"
result = "4.07 µM"

